Target: T1, TNFR1 (Homo sapiens, UniProt P19438)
T1 chain: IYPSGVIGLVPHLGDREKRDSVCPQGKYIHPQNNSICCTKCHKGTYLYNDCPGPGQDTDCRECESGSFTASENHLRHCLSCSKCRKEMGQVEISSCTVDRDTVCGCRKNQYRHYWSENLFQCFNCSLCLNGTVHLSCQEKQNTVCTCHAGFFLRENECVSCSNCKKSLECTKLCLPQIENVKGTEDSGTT
Test: yeast display SC50
PROPERTY: apparent Kd (screen) (nM)

binder="E10M (designed binder) MTLQELLREMALRRAEAEAFRYALELLAEKFPEQKEYLLDLAEEIESQIRSLSGVDVEDVRKFLDKEWAWVKELLAEHPAELAEVEAARAARLAELRAEVEAKVAA" result_units=nM value_reported=2.48
binder="R92N (designed binder) MTLQELLREEALRRAEAEAFRYALELLAEKFPEQKEYLLDLAEEIESQIRSLSGVDVEDVRKFLDKEWAWVKELLAEHPAELAEVEAARAANLAELRAEVEAKVAA" result_units=nM value_reported=0.718
binder="F31M (designed binder) MTLQELLREEALRRAEAEAFRYALELLAEKMPEQKEYLLDLAEEIESQIRSLSGVDVEDVRKFLDKEWAWVKELLAEHPAELAEVEAARAARLAELRAEVEAKVAA" result_units=nM value_reported=0.539
binder="L12C (designed binder) MTLQELLREEACRRAEAEAFRYALELLAEKFPEQKEYLLDLAEEIESQIRSLSGVDVEDVRKFLDKEWAWVKELLAEHPAELAEVEAARAARLAELRAEVEAKVAA" result_units=nM value_reported=0.79
binder="Q34N (designed binder) MTLQELLREEALRRAEAEAFRYALELLAEKFPENKEYLLDLAEEIESQIRSLSGVDVEDVRKFLDKEWAWVKELLAEHPAELAEVEAARAARLAELRAEVEAKVAA" result_units=nM value_reported=0.539
binder="D65Y (designed binder) MTLQELLREEALRRAEAEAFRYALELLAEKFPEQKEYLLDLAEEIESQIRSLSGVDVEDVRKFLYKEWAWVKELLAEHPAELAEVEAARAARLAELRAEVEAKVAA" result_units=nM value_reported=0.653
binder="A94M (designed binder) MTLQELLREEALRRAEAEAFRYALELLAEKFPEQKEYLLDLAEEIESQIRSLSGVDVEDVRKFLDKEWAWVKELLAEHPAELAEVEAARAARLMELRAEVEAKVAA" result_units=nM value_reported=0.718
binder="K103L (designed binder) MTLQELLREEALRRAEAEAFRYALELLAEKFPEQKEYLLDLAEEIESQIRSLSGVDVEDVRKFLDKEWAWVKELLAEHPAELAEVEAARAARLAELRAEVEALVAA" result_units=nM value_reported=1.86
